study system: γ-secretase (detergent-solubilized membranes from HeLa cells)
assay name: cell-based or functional assay
Starred links: 1 amine or outer side, 2 acyl side, 3 side chain; linkers in the order of their positions; H or OH if unused. Non-standard residues stand in square brackets, D forms with d. *: point of attachment. dThr(OBz) = D-threonine with an O-benzyl (OBz) group, C[C@H](OCc1ccccc1)[C@@H](N[*:1])C(=O)[*:2]; Thr(OBz) = threonine with O-benzyl ester (OBz); Boc = CC(C)(C)OC(=O)*; Aib = CC(C)(N)C(=O)O
measure: Cell-free Assay IC50 (concentration required for 50% inhibition of Aβ40 production) (nM)
Give the value, in units of nM, as a plain number.

Observe how each entry below is paired with its result.
binder="Boc-G[Aib]VVI[Aib][Thr(OBz)]V[Aib]VI[Aib]-OMe [L-peptide Boc-Gly-Aib-Val-Val-Ile-Aib-Thr(OBz)-Val-Aib-Val-Ile-Aib-OMe (SEQ ID NO:17)]" measurement=360
binder="Boc-G[dL][Aib][dV]G[Aib][dV][dV][dI][Aib][dThr(OBz)][dV][Aib][dV][dI][Aib]-OMe (SMILES CC[C@@H](C)[C@@H](NC(=O)[C@H](NC(=O)[C@H](NC(=O)C(C)(C)NC(=O)CNC(=O)[C@H](NC(=O)C(C)(C)NC(=O)[C@@H](CC(C)C)NC(=O)CNC(=O)OC(C)(C)C)C(C)C)C(C)C)C(C)C)C(=O)NC(C)(C)C(=O)N[C@@H](C(=O)N[C@@H](C(=O)NC(C)(C)C(=O)N[C@@H](C(=O)N[C@@H](C(=O)NC(C)(C)C(=O)OC)[C@H](C)CC)C(C)C)C(C)C)[C@H](C)OCc1ccccc1)" measurement=26

Moving on to the next binder.
Which Cell-free Assay IC50 (concentration required for 50% inhibition of Aβ40 production) value belongs to Boc-G[Aib][dV][dV][dI][Aib][dThr(OBz)][dV][Aib][dV][dI][Aib]-OMe (SMILES CC[C@@H](C)[C@@H](NC(=O)[C@H](NC(=O)[C@H](NC(=O)C(C)(C)NC(=O)CNC(=O)OC(C)(C)C)C(C)C)C(C)C)C(=O)NC(C)(C)C(=O)N[C@@H](C(=O)N[C@@H](C(=O)NC(C)(C)C(=O)N[C@@H](C(=O)N[C@@H](C(=O)NC(C)(C)C(=O)OC)[C@H](C)CC)C(C)C)C(C)C)[C@H](C)OCc1ccccc1) [D-peptide Boc-Gly-Aib-Val-Val-Ile-Aib-Thr(OBz)-Val-Aib-Val-Ile-Aib-OMe (SEQ ID NO:17)] ?
12
